The origin of these recorded values is a melting point compilation (Tetko et al.; mined from patent text by program, amines drawn as free bases though some values may be those of a salt).

We begin with a simple list: items and their reported melting point.

COMPOUND: COc1nc2ccccc2cc1N(C(=O)N1CCN(c2cc(C)cc(C)c2)CC1)C(C)C
melting point: 114 to 115 °C
//
COMPOUND: CCCCC(=O)CC1c2ccccc2C(=O)N1c1ccc2ccc(OC)nc2n1 (configuration not stated)
melting point: 161 °C
//
COMPOUND: CN(C)c1c(CC(=O)O)cccc1C(=O)c1ccccc1
melting point: 144 to 146 °C
//
COMPOUND: CN1CC(CCCCN2CCN(c3ccccc3O)CC2)OC1=O (configuration not stated)
melting point: 106 to 110 °C
//
COMPOUND: FC(F)(F)c1nnc2nc(-c3ccccc3)c3cc(Cl)ccc3n12
melting point: 241 to 242 °C
//
COMPOUND: Fc1ccc(NC(=S)c2ccccn2)cc1Cn1ccnc1
melting point: 154 to 156 °C
//
COMPOUND: O=C(O)Cc1ccc(OCCCc2cc(-c3ccc(C(F)(F)F)cc3)no2)cc1
melting point: 127 to 128 °C
//
COMPOUND: Cc1ccc(-c2cc(N3CCCC3)c(C#N)c3c2-c2ccccc2C3=O)cc1
melting point: 162 to 164 °C
//
COMPOUND: CC(C)n1nc(C#Cc2cccc(Cl)c2)ccc1=O
melting point: 94 to 95 °C
//
COMPOUND: O=[N+]([O-])c1cc2cc(Br)ccc2nc1Cl
melting point: 203 °C
//
COMPOUND: CCCS(=O)c1ncc(C(F)(F)F)cc1Cl (configuration not stated)
melting point: 51 to 53 °C
//
COMPOUND: CC(=O)C(=Cc1ccccc1)C(C)=O
melting point: 165 to 167 °C
//
COMPOUND: C[C@@H](N1CCN(c2ccc(OC(F)(F)C(F)F)cc2)C1=O)[C@@]1(c2ccccc2F)CO1
melting point: 148 to 149 °C
//
COMPOUND: COc1nc(Cl)n2nc(SCc3ccccc3)nc2c1Br
melting point: 124 to 125 °C
//
COMPOUND: CC(=O)NC(=O)C(Cl)Cc1ccc(OCC(C)(C)c2ccccc2)cc1 (configuration not stated)
melting point: 125 to 126 °C
//
COMPOUND: Nc1ccnn1-c1c(Cl)cc(C(F)(F)F)cc1Cl
melting point: 90 to 94 °C
//
COMPOUND: c1ccc(C2=Nc3ccccc3OC2)cc1
melting point: 108 to 111 °C
//
COMPOUND: COc1cc(-c2ncnc(OC)c2Cl)c(F)cc1Cl
melting point: 142 to 143 °C
//
COMPOUND: C[C@H](NC(=O)OCc1ccccc1)C(=O)N1CCC[C@H]1C(=O)NC1CCCCCC1
melting point: 110 to 113 °C
//
COMPOUND: C#Cc1cnn2ccc(-c3ccc(Cl)cc3)nc12
melting point: 128 to 129 °C
//
COMPOUND: COC(=O)C1=C(C)NC(C)=C(C(=O)OC)C1c1cccc(Nc2c(NCCCN3CCN(C4CCCCC4)CC3)c(=O)c2=O)c1
melting point: 210 to 212 °C
//
COMPOUND: COCc1cccc(COC)c1SSc1c(COC)cccc1COC
melting point: 89 to 90 °C
